# system-tested: Human immunodeficiency virus type 1 integrase (Human immunodeficiency virus 1, UniProt Q7ZJM1)
# Sequence (Q7ZJM1 whole entry): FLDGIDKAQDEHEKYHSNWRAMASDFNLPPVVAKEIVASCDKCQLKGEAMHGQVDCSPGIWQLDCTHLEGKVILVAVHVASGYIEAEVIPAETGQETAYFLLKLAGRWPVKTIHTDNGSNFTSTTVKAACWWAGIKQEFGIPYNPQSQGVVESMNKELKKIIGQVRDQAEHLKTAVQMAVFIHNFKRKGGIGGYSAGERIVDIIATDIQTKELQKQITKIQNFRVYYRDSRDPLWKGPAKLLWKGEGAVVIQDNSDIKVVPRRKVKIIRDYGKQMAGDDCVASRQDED
pIC50: −log10 of the molar value.
Threshold check on pIC50: at or above 5 gives yes (1), strictly below gives no (0).

* O=C(CC(=O)C(=O)O)CC(=O)c1ccccc1C(F)(F)F | yes (1)
* O=C(CC(=O)C(=O)O)CC(=O)c1ccccc1 | no (0)
* COc1ccccc1C(=O)CC(=O)CC(=O)C(=O)O | yes (1)
* O=C(CC(=O)C(=O)O)CC(=O)c1ccccc1OCc1ccccc1 | yes (1)
* O=C(CC(=O)C(=O)O)CC(=O)c1ccc2ccccc2c1 | yes (1)
* O=C(CC(=O)C(=O)O)CC(=O)c1cccnc1 | no (0)
* O=C(O)C(=O)/C=C(\O)c1c[nH]c2ccc(Cl)cc12 | yes (1)
* O=C(CC(=O)C(=O)O)CC(=O)c1ccccc1F | yes (1)
* O=C(/C=C(\O)C(=O)O)CCc1ccccc1Br | yes (1)
* O=C(CC(=O)c1cccn1Cc1ccc(F)cc1)c1nnn[nH]1 | no (0)
